I'd appreciate it if you could supply PI3K beta average IC50/ PI3K alpha average IC50 values for the items below.
# system-name: PI3Kβ (Homo sapiens)
# Construct: N-terminal His6-tagged recombinant full-length human p110β; His6 (N); purchased Millipore 14-603; host or cells: baculovirus infected Sf21 insect cells
# Sequence (P42338 whole entry): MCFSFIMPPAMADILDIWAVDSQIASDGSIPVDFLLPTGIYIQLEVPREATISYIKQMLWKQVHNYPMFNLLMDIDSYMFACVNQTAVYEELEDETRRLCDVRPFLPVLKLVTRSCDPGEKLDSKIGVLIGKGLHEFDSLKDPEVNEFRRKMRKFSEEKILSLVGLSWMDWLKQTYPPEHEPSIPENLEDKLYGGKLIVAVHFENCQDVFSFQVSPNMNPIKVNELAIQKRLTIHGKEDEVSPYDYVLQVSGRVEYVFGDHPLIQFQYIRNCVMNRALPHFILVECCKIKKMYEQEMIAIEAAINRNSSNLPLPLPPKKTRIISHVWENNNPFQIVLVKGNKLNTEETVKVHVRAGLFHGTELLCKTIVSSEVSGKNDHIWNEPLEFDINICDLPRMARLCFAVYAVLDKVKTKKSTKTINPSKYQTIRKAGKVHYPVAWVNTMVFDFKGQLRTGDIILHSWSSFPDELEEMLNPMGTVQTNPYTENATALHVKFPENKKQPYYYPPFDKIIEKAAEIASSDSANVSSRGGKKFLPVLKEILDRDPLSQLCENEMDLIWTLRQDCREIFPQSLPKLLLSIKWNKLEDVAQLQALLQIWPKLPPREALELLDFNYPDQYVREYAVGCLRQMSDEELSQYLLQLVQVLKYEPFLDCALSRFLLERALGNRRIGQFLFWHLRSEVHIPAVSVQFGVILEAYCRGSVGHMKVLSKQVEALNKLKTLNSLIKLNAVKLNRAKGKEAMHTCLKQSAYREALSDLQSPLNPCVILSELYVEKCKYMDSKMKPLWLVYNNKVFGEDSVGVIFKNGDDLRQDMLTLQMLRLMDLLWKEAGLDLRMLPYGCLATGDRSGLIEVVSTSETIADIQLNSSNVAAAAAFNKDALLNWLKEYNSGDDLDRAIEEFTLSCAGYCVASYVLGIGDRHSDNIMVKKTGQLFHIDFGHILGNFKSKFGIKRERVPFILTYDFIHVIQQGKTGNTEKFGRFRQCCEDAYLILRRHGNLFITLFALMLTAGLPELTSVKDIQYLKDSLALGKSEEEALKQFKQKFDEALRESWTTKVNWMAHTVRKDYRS
# Sequence (P27986 whole entry partner): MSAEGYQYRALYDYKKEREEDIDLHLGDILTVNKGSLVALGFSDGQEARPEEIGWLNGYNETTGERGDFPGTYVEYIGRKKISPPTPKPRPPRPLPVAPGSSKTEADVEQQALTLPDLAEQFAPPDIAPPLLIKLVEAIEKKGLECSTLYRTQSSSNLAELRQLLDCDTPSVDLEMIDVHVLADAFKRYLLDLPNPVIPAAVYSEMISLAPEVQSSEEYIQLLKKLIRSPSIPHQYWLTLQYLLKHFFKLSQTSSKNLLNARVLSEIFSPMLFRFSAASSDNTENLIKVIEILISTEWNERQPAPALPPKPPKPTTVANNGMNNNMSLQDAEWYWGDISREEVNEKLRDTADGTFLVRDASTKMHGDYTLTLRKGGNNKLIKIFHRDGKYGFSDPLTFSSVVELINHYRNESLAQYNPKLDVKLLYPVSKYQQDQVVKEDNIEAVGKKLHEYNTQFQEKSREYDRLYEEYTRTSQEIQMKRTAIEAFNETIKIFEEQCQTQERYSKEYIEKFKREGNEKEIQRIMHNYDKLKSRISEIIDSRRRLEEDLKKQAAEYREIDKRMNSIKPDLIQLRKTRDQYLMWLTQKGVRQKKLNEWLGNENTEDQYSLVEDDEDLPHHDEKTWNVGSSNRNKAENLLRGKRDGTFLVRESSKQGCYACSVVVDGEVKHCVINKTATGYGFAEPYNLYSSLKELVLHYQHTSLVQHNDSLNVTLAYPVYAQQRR
# measurement-description: PI3Kβ kinase assay (HTRF based PI3K inhibition assay)
# Assay type: biochemical
# settings: ratio of PI3K beta IC50 to PI3K alpha IC50 (A2 and A1)
# Excerpt: Determination of % Inhibition and IC50 Values of Compounds in PI3Kβ Kinase Assay PI3Kβ inhibitory activity of compounds of the present invention was quantified employing the HTRF based PI3K inhibition assay as described below. As reagents for the kinase reaction itself and the quantification of the reaction product, the PI3-Kinase HTRF Assay kit from Millipore (#33-017) was used. […]
Answers are plain numbers.

compound: COc1c(OC[C@](C)(O)CN2C[C@@H](C)O[C@@H](C)C2)ccc2c1N=C(NC(=O)c1cccnc1)N1CCN=C21 (relative stereo)
observed-result: 8.95

Go through the list and state PI3K beta average IC50/ PI3K alpha average IC50 for each entry.
1. C[C@@H]1CN(C[C@@H](O)COc2ccc3c(c2OCCc2ccc(F)cc2)N=C(NC(=O)c2cccnc2)N2CCN=C32)C[C@H](C)O1
2. O=C(NC1=Nc2c(ccc(OCC(O)CN3CCOCC3)c2OCCc2ccc(F)cc2)C2=NCCN12)c1cccnc1 (stereo not drawn)

Given back:
[2.28, 0.63]
